The measured values listed here are drawn from PubChem BioAssay (NCI).

ASSAY NAME: NCI Yeast Anticancer Drug Screen. Data for the bub3 strain (AID 167)
PARTICULARS: S. cerevisiae bub3 mutant strain, at 50.0 µM, active compounds read high
Description: Growth inhibition of yeast strains with defined genetic alterations is measured as a screen for potential anti-cancer activity. Selected strains with alterations in DNA damage repair or cell cycle control were exposed to compounds and growth inhibition was measured relative to vehicle treated controls. The strain used in this assay is bub3
About 79,000 compounds went through this panel and 15% of them were active in at least one assay; those are over-represented in the sample as a whole. Calls of active or inactive are those of the source. Cut-off read from the data, not from the text of the source: active = growth inhibition above about 70%; inactive = the rest.
PROPERTY NAME: growth inhibition

Sample answers from the record:
O=C1c2cc([N+](=O)[O-])ccc2-c2c(I)cccc21
-9.25% (inactive)
COC(=O)C(/C(=N/NC(N)=O)C(=O)Nc1c(C)cccc1C(C)(C)C)c1nc2ccc(Cl)cc2[nH]c1=O (centres undefined)
-11.2% (inactive)
N#C/C(c1ccccc1)=[N+](/[O-])O
-17.5% (inactive)

The record that follows has no growth inhibition shown yet.
Q: Name the recorded growth inhibition for S=C(c1ccccc1Cl)N1CCOCC1 .
Result: 20.1% (inactive)
